- experimental.target: NAD-dependent protein deacylase sirtuin-6 (Homo sapiens) (UniProt Q8N6T7)
- Sequence (Q8N6T7 whole entry, the tested form may be a part): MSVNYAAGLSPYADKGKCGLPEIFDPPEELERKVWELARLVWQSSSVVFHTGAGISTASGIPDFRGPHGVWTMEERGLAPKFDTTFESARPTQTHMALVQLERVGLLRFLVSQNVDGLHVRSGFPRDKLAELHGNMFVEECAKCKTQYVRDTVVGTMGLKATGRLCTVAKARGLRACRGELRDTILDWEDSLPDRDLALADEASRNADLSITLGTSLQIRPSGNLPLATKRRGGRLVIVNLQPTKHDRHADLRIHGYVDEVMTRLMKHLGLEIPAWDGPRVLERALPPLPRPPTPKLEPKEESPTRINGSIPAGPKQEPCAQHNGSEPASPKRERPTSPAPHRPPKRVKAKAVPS
- assay.text: Inhibition of recombinant human N-terminal polyhis-tagged SIRT6 (1 to 355 residues) defatty-acylase activity expressed in Escherichia coli at 2 uM using SFP3 as substrate measured at 5 mins interval for 60 mins in presence of NAD+ by fluorescence assay relative to control
Residues, ends and D or L forms follow the SMILES beside them. *: point of attachment. Phenylacetyl(4-E-phenylazo) = O=C(Cc1ccc(/N=N/c2ccccc2)cc1)*; X4 = CN(C)c1ccc(/N=N/c2ccc(CC(=O)*)cc2)cc1; X2 = CN(C)c1ccc(/N=N/c2ccc(C(=O)*)cc2)cc1; X1 = O=C(Cc1ccc(/N=N/c2ccc(O)cc2)cc1)*
inhibition below 10% gives False; inhibition at or above it gives True.

molecule	category.label
CC[C@H](C)[C@H](NC(=O)[C@H](CCCCNC(=O)Cc1ccc(/N=N/c2ccccc2)cc1)NC(=O)[C@@H](NC(C)=O)C(C)C)C(=O)N[C@@H](CCCCN)C(=O)N[C@@H](CCCCN)C(N)=O (Ac-VK(Phenylacetyl(4-E-phenylazo))IKK-NH2)	False

**Q:** Textbook exercise: given the entry C[C@H](NC(=O)[C@H](CCCCNC(=O)Cc1ccc(/N=N/c2ccc(OCc3ccccc3)cc2)cc1)NC(=O)OCc1ccccc1)C(N)=O , state whether its inhibition is greater than or equal to 10%.
**A:** False

**Q:** And the next one, CC[C@H](C)[C@H](NC(=O)[C@H](CCCNC(=N)N)NC(C)=O)C(=O)N[C@@H](CCCCNC(=O)c1ccc(/N=N/c2ccc(N(C)C)cc2)cc1)C(=O)N[C@@H](CCCNC(=N)N)C(=O)N[C@@H](Cc1ccc(O)cc1)C(N)=O (Ac-RIK(X2)RY-NH2) ?
**A:** True

**Q:** And the next one, CC[C@H](C)[C@H](NC(=O)[C@H](CCCNC(=N)N)NC(C)=O)C(=O)N[C@@H](CCCCNC(=O)Cc1ccc(/N=N/c2ccc(O)cc2)cc1)C(=O)N[C@@H](CCCNC(=N)N)C(=O)N[C@@H](Cc1ccc(O)cc1)C(N)=O (Ac-RIK(X1)RY-NH2) ?
**A:** True

**Q:** And the next one, CC[C@H](C)[C@H](NC(=O)[C@H](CCCNC(=N)N)NC(C)=O)C(=O)N[C@@H](CCCCNC(=O)Cc1ccc(/N=N/c2ccc(N(C)C)cc2)cc1)C(=O)N[C@@H](CCCNC(=N)N)C(=O)N[C@@H](Cc1ccc(O)cc1)C(N)=O (Ac-RIK(X4)RY-NH2) ?
**A:** True

----------
- experimental.target: NAD-dependent protein deacetylase sirtuin-2 (Homo sapiens) (UniProt Q8IXJ6)
- Sequence (Q8IXJ6 whole entry): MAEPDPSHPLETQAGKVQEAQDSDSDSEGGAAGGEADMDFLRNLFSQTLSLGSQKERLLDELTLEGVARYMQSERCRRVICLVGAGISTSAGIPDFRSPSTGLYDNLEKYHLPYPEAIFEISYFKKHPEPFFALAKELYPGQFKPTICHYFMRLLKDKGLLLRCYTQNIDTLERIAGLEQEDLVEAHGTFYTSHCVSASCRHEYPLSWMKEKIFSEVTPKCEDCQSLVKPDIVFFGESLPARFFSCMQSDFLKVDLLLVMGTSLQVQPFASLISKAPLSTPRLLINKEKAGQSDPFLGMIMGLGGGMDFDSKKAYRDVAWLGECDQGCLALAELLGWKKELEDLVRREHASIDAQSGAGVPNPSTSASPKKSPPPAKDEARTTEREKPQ
- assay.text: Inhibition of recombinant human SIRT2 demyristoylase activity at 1 uM using p53(Myr)-AMC as substrate measured after 3 hrs in presence of NAD+ and trypsin by fluorescence assay relative to control
Residues, ends and D or L forms follow the SMILES beside them. *: point of attachment. Phenylacetyl(4-E-phenylazo) = O=C(Cc1ccc(/N=N/c2ccccc2)cc1)*; X3 = CN(C)c1ccc(/N=N/c2ccc(CCC(=O)*)cc2)cc1; X2 = CN(C)c1ccc(/N=N/c2ccc(C(=O)*)cc2)cc1
inhibition below 5% gives 0 (no); inhibition at or above it gives 1 (yes).

**Q:** Textbook exercise: given the entry C[C@H](NC(=O)[C@H](CCCCNC(=O)Cc1ccc(/N=N/c2ccc(OCc3ccccc3)cc2)cc1)NC(=O)OCc1ccccc1)C(N)=O , state whether its inhibition is greater than or equal to 5%.
**A:** 0 (no)

**Q:** And the next one, CC[C@H](C)[C@H](NC(=O)[C@@H](NC(=O)[C@H](CCCCNC(=O)c1ccc(/N=N/c2ccc(N(C)C)cc2)cc1)NC(=O)[C@H](CC(=O)O)NC(=O)[C@H](CO)NC(C)=O)[C@@H](C)O)C(N)=O (Ac-SDK(X2)TI-NH2) ?
**A:** 0 (no)

**Q:** And the next one, CC[C@H](C)[C@H](NC(=O)[C@@H](NC(=O)[C@H](CCCCNC(=O)Cc1ccc(/N=N/c2ccccc2)cc1)NC(=O)[C@H](CC(=O)O)NC(=O)[C@H](CO)NC(C)=O)[C@@H](C)O)C(N)=O (Ac-SDK(Phenylacetyl(4-E-phenylazo))TI-NH2) ?
**A:** 1 (yes)

**Q:** And the next one, C[C@H](NC(=O)[C@H](CCCCNC(=O)Cc1ccc(/N=N/c2ccc(OCCc3ccccc3)cc2)cc1)NC(=O)OCc1ccccc1)C(N)=O ?
**A:** 0 (no)

**Q:** And the next one, C[C@H](NC(=O)[C@H](CCCCNC(=O)Cc1ccc(/N=N/c2ccc(O)cc2)cc1)NC(=O)OCc1ccccc1)C(N)=O ?
**A:** 1 (yes)

**Q:** And the next one, CCCCCCCCCCCCCC(=O)NCCCC[C@H](NC(=O)OCc1ccccc1)C(=O)Nc1ccccc1 ?
**A:** 1 (yes)

**Q:** And the next one, CC[C@H](C)[C@H](NC(=O)[C@H](CCCNC(=N)N)NC(C)=O)C(=O)N[C@@H](CCCCNC(=O)CCc1ccc(/N=N/c2ccc(N(C)C)cc2)cc1)C(=O)N[C@@H](CCCNC(=N)N)C(=O)N[C@@H](Cc1ccc(O)cc1)C(N)=O (Ac-RIK(X3)RY-NH2) ?
**A:** 1 (yes)
